I'd be grateful if you could share measured log10(Ki) for these entries.
Biological target: Rat brain mu opioid receptor (Rattus norvegicus, UniProt P33535)
Construct: from tissue; host or cells: forebrain of male Sprague Dawley rats
Sequence (P33535 whole entry): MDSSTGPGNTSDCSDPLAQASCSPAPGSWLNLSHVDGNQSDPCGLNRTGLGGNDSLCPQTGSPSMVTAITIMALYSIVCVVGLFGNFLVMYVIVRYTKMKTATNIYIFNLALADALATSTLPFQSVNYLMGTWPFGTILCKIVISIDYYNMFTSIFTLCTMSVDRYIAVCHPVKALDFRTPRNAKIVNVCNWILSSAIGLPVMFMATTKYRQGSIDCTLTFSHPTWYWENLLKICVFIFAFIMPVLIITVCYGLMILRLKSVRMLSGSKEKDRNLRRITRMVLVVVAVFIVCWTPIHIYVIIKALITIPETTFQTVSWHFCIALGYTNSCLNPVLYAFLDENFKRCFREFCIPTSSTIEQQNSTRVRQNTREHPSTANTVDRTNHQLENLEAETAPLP
Assay: Rat brain mu opioid receptor binding assay ([3H]DAMGO)
Conditions: rMOR Ki
Transform log10 | Measure Ki | Unit nM

[Q] Requested field: log10(Ki). Item: CCN(CC)C(=O)c1ccc2c(c1)OCc1ccccc1C2=C1CCNCC1 [Compound 2]
[A] 3.42

[Q] Entry to check: CCN(CC)C(=O)c1ccc2c(c1)Oc1ccc(-c3ccsc3)cc1C2=C1CC2CCC(C1)N2 [Compound 90]
[A] 4.09

[Q] Entry to check: CCN(CC)C(=O)c1ccc2c(c1)Oc1c(cccc1-c1cccnc1)C2=C1CC2CCC(C1)N2 [Compound 101]
[A] 2.73

[Q] Entry to check: CCN(CC)C(=O)c1ccc2c(c1)Oc1ccccc1C2=C1CCN(Cc2ccoc2)CC1 [Compound 28]
[A] 2.91

[Q] Entry to check: CCNC(=O)c1ccc2c(c1)Sc1ccccc1C2=C1CC2CCC(C1)N2 [Compound 81]
[A] 2.92

Please report log10(Ki) for every entry that follows.
1. CCN(CC)C(=O)c1ccc2c(c1)Oc1ccccc1C2=C1CC2CCC(C1)N2 [Compound 24]
2. CCN(CC)C(=O)c1ccc2c(c1)Sc1ccccc1C2=C1CC2CCC(C1)N2 (single isomer, unassigned) [Compound 61]
3. CCN(CC)C(=O)c1ccc2c(c1)Oc1ccccc1C2=C1CC2CCC(C1)N2Cc1ccccn1 [Compound 44]
4. CCN(CC)C(=O)c1ccc2c(c1)Oc1cc(OC)ccc1C2=C1CC2CCC(C1)N2 [Compound 70]
5. CCN(CC)C(=O)c1ccc2c(c1)Oc1ccc(F)cc1C2=C1CC2CCC(C1)N2 [Compound 69]
6. CCN(CC)C(=O)c1ccc2c(c1)Oc1c(cccc1-c1ccoc1)C2=C1CC2CCC(C1)N2 [Compound 97]

[A]
[3.76, 3.86, 1.89, 3.76, 3.77, 3.26]

* * *

Biological target: delta opioid receptor (Mus musculus, UniProt P32300)
Construct: host or cells: NG108-15 cells (membranes, purchased)
Sequence (P32300 whole entry): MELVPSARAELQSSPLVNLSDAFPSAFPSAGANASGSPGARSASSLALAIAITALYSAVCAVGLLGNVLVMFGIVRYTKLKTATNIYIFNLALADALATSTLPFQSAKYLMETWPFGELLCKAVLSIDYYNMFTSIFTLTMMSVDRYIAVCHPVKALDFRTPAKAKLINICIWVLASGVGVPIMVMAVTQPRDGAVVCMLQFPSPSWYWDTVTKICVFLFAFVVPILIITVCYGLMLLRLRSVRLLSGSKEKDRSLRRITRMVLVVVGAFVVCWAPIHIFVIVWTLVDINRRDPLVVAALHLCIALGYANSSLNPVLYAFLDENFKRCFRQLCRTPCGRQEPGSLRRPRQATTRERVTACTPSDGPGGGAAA
Assay: [35S]GTPγS binding assay in NG108-15 cell membrane
Type: biochemical
Conditions: DOR GTPγS EC50, delta opioid receptor GTPγS functional assay
I'd be grateful if you could share measured pEC50 for these entries.
One number for each entry, as −log10 of the molar value.

Solved cases below.
[Q] Requested field: pEC50. Item: `CC(C)N(C)C(=O)c1ccc2c(c1)Oc1ccccc1C2=C1CC2CCC(C1)N2`
[A] 7.26

[Q] Entry to check: `CCN(CC)C(=O)c1ccc2c(c1)Oc1c(cccc1-c1ccsc1)C2=C1CC2CCC(C1)N2`
[A] 7.90

[Q] Entry to check: `CCN(CC)C(=O)c1ccc2c(c1)Oc1c(Br)cccc1C2=C1CC2CCC(C1)N2`
[A] 7.85

[Q] Entry to check: `CCN(CC)C(=O)c1ccc2c(c1)Oc1ccc(F)cc1C2=C1CC2CCC(C1)N2`
[A] 6.90

[Q] Entry to check: `CCN(CC)C(=O)c1ccc2c(c1)Oc1c(OC)cccc1C2=C1CC2CCC(C1)N2`
[A] 7.66

Next item in the queue.
[Q] Requested field: pEC50. Item: `CCN(CC)C(=O)c1ccc2c(c1)Oc1c(cccc1-c1ccncc1)C2=C1CC2CCC(C1)N2`
[A] 7.45

* * *

Molecular target: Rat brain mu opioid receptor (Rattus norvegicus, UniProt P33535)
Construct: from tissue; host or cells: forebrain of male Sprague Dawley rats
Assay: Rat brain mu opioid receptor binding assay ([3H]DAMGO)
Details: read-out: rMOR Ki
pKi: −log10 of the molar value.
Classification field: enter 1 for pKi values not below 6, -1 for values below it.

[Q] pKi >= 6 for `CCN(CC)C(=O)c1ccc2c(c1)Oc1ccccc1C2=C1CCN(CCO)CC1` ?
[A] -1

[Q] Entry to check: `C=CCN1CCC(=C2c3ccccc3COc3cc(C(=O)NCC)ccc32)CC1`
[A] -1

[Q] Entry to check: `CCN(CC)C(=O)c1ccc2c(c1)Oc1ccc(NC(C)=O)cc1C2=C1CCNCC1`
[A] -1

[Q] Entry to check: `CCNC(=O)c1ccc2c(c1)Oc1ccccc1C2=C1CC2CCC(C1)N2CCc1ccccc1`
[A] 1

[Q] Entry to check: `CCN(CC)C(=O)c1ccc2c(c1)OCc1ccccc1C2=C1CCN(Cc2ccc3c(c2)OCO3)CC1`
[A] 1

Next:
[Q] pKi >= 6 for `CCN(CC)C(=O)c1ccc2c(c1)Oc1ccc(NC(C)=O)cc1C2=C1CCN(C)CC1` ?
[A] -1

[Q] Entry to check: CCNC(=O)c1ccc2c(c1)Oc1ccccc1C2=C1CC2CCC(C1)N2 (single isomer, unassigned) [Compound 55]
[A] -1

* * *

I'd be grateful if you could share measured pEC50 for these entries.
Target: delta opioid receptor (Mus musculus)
Construct: host or cells: NG108-15 cells (membranes, purchased)
Experiment: [35S]GTPγS binding assay in NG108-15 cell membrane
Assay type: biochemical
Details: DOR GTPγS EC50, delta opioid receptor GTPγS functional assay
Answers are plain numbers, as −log10 of the molar value.

[Q] Requested field: pEC50. Item: `CCN(CC)C(=O)c1ccc2c(c1)Oc1cc(O)ccc1C2=C1CC2CCC(C1)N2`
[A] 8.23

[Q] Entry to check: CCN(CC)C(=O)c1ccc2c(c1)Oc1ccccc1C2=C1CC2CCC(C1)N2 (single isomer, unassigned) [Compound 53]
[A] 5.69

[Q] Entry to check: CCN(CC)C(=O)c1ccc2c(c1)Oc1ccccc1C2=C1CC2CCC(C1)N2 (single isomer, unassigned) [Compound 52]
[A] 7.18

Next item in the queue.
[Q] Requested field: pEC50. Item: `CCN(CC)C(=O)c1ccc2c(c1)Oc1c(O)cccc1C2=C1CC2CCC(C1)N2`
[A] 9.34

* * *

Biological target: Rat brain mu opioid receptor (Rattus norvegicus, UniProt P33535)
Construct: from tissue; host or cells: forebrain of male Sprague Dawley rats
Test: Rat brain mu opioid receptor binding assay ([3H]DAMGO)
Details: read-out: rMOR Ki
pKi: −log10 of the molar value.
just bin them by pKi: low group (below 5), middle group (5 to below 6), high group (6 or more)

[Q] For the record CCN(CC)C(=O)c1ccc2c(c1)Oc1ccccc1C2=C1CCN(CCc2ccccc2)CC1 [Compound 22] , report the class its pKi corresponds to.
[A] middle group

[Q] Entry to check: C=C(C)CN1CCC(=C2c3ccccc3COc3cc(C(=O)NCC)ccc32)CC1 [Compound 14]
[A] middle group

[Q] Entry to check: CCN(CC)C(=O)c1ccc2c(c1)OCc1ccccc1C2=C1CCN(C)CC1 [Compound 1]
[A] middle group

[Q] Entry to check: CCNC(=O)c1ccc2c(c1)OCc1ccccc1C2=C1CCN(C)CC1 [Compound 9]
[A] low group

[Q] Entry to check: CCNC(=O)c1ccc2c(c1)OCc1ccccc1C2=C1CCN(CCc2ccccc2)CC1 [Compound 20]
[A] high group

Next:
[Q] For the record CCNC(=O)c1ccc2c(c1)OCc1ccccc1C2=C1CCN(Cc2ccc(O)c(OC)c2)CC1 [Compound 18] , report the class its pKi corresponds to.
[A] middle group

[Q] Entry to check: CCNC(=O)c1ccc2c(c1)OCc1ccccc1C2=C1CCN(C(=O)OCC(Cl)(Cl)Cl)CC1 [Compound 10]
[A] low group

[Q] Entry to check: CCN(CC)C(=O)c1ccc2c(c1)Oc1ccccc1C2=C1CCN(C(=N)N)CC1 [Compound 31]
[A] high group

* * *

Molecular target: Rat brain mu opioid receptor (Rattus norvegicus, UniProt P33535)
Construct: from tissue; host or cells: forebrain of male Sprague Dawley rats
Assay: Rat brain mu opioid receptor binding assay ([3H]DAMGO)
Settings: rMOR Ki
I'd be grateful if you could share measured Ki for these entries.
One number for each entry, in nM.

[Q] Requested field: Ki. Item: CCN(CC)C(=O)c1ccc2c(c1)Oc1ccccc1C2=C1CCN(C)CC1 [Compound 7]
[A] 9190

[Q] Entry to check: CCN(CC)C(=O)c1ccc2c(c1)Oc1ccccc1C2=C1CC2CCC(C1)N2CCOC [Compound 39]
[A] 1680

[Q] Entry to check: CCN(CC)C(=O)c1ccc2c(c1)Oc1c(cccc1-c1ccncc1)C2=C1CC2CCC(C1)N2 [Compound 96]
[A] 4220

[Q] Entry to check: CCN(CC)C(=O)c1ccc2c(c1)Oc1ccccc1C2=C1CCNCC1 [Compound 3]
[A] 6790

Please report Ki for every entry that follows.
1. CC(C)N(C)C(=O)c1ccc2c(c1)Oc1ccccc1C2=C1CC2CCC(C1)N2 [Compound 92]
2. CCN(CC)C(=O)c1ccc2c(c1)Oc1c(OC)cccc1C2=C1CC2CCC(C1)N2 [Compound 68]
3. CCN(CC)C(=O)c1ccc2c(c1)Oc1ccccc1C2=C1CC2CCC(C1)N2Cc1ccoc1 [Compound 25]
4. CCN(CC)C(=O)c1ccc2c(c1)Oc1ccccc1C2=C1CC2CCC(C1)N2C [Compound 23]
5. CCN(CC)C(=O)c1ccc2c(c1)Sc1ccccc1C2=C1CC2CCC(C1)N2 (single isomer, unassigned) [Compound 62]

[A]
1. 2.09
2. 1290
3. 879
4. 5560
5. 739
